- Tested on: BV-associated bacteria
- procedure_text: Acid production by BV-associated bacteria in carbohydrate containing gels, slightly aerobic incubation (Experimental Example 1)
- Format: cell-based
- condition_parameters: Specimen 2; 0 hr (initial); 1% (w/v) carbohydrate gel
- Description: […] (3) After sampling, the secretion specimens from BV patients meeting the criteria of inclusion were immediately inoculated to the above 4 gels containing a carbohydrate, and slightly aerobically incubated at 37° C. for 46 hrs. The pH values of the gel matrices are detected with a precise pH test paper respectively at 14 hrs, 36 hrs, and 46 hrs.
measurement_kind: pH of the gel
Respond numerically, and do not add a unit to the figure.

Known results for compounds:
compound: OC[C@H]1O[C@@](CO)(O[C@H]2O[C@H](CO)[C@@H](O)[C@H](O)[C@H]2O)[C@@H](O)[C@@H]1O
pH of the gel: 5.4
//
compound: OC[C@H]1O[C@H](OC[C@H]2OC(O)(CO)[C@@H](O)[C@@H]2O)[C@H](O)[C@@H](O)[C@@H]1O (stereo partly shown)
pH of the gel: 5.4
//
compound: OC[C@H]1O[C@H](OC[C@H]2OC(O)[C@H](O)[C@@H](O)[C@@H]2O)[C@H](O)[C@@H](O)[C@@H]1O (stereo partly shown)
pH of the gel: 5.4

What value of pH of the gel on BV-associated bacteria does OC[C@H]1O[C@H](O[C@H]2[C@H](O)[C@@H](O)C(O)O[C@@H]2CO)[C@H](O)[C@@H](O)[C@@H]1O (mixture of isomers) have?
5.4
